Entries and their SAM residual rate
Assay: Stabilizing agent: dried yeast cells containing SAM with added compound preserved at 25° C. for 7 days
Type: physicochemical
Conditions: compound added at 30% by weight to dried yeast cells; 25° C., 7 days
A number alone suffices; assume %.

Some compounds with recorded SAM residual rate:
{"COMPOUND": "NCC(=O)O", "RECORDED ENDPOINT": "SAM residual rate", "UNIT ABBREV": "%", "RECORDED VALUE": 97.5}
{"COMPOUND": "Cl.N [Ammonium chloride]", "RECORDED ENDPOINT": "SAM residual rate", "UNIT ABBREV": "%", "RECORDED VALUE": 95.6}
{"COMPOUND": "OC[C@@H](O)[C@@H](O)[C@H](O)[C@@H](O)CO", "RECORDED ENDPOINT": "SAM residual rate", "UNIT ABBREV": "%", "RECORDED VALUE": 98.2}
{"COMPOUND": "O[C@H]1[C@H](O)[C@@H](O)[C@H](O)[C@@H](O)[C@H]1O", "RECORDED ENDPOINT": "SAM residual rate", "UNIT ABBREV": "%", "RECORDED VALUE": 96.2}
{"COMPOUND": "CC(C)[C@H](N)C(=O)O", "RECORDED ENDPOINT": "SAM residual rate", "UNIT ABBREV": "%", "RECORDED VALUE": 89.7}
{"COMPOUND": "O=C(O)CC(O)C(=O)O (racemic)", "RECORDED ENDPOINT": "SAM residual rate", "UNIT ABBREV": "%", "RECORDED VALUE": 99.1}
{"COMPOUND": "OC[C@H]1O[C@@H](O[C@H]2[C@H](O)[C@@H](O)[C@H](O)O[C@@H]2CO)[C@H](O)[C@@H](O)[C@@H]1O", "RECORDED ENDPOINT": "SAM residual rate", "UNIT ABBREV": "%", "RECORDED VALUE": 93.1}
{"COMPOUND": "NC(=O)CC[C@H](N)C(=O)O", "RECORDED ENDPOINT": "SAM residual rate", "UNIT ABBREV": "%", "RECORDED VALUE": 94.5}
{"COMPOUND": "O=C(O)CC(O)(CC(=O)O)C(=O)O", "RECORDED ENDPOINT": "SAM residual rate", "UNIT ABBREV": "%", "RECORDED VALUE": 96.6}
{"COMPOUND": "O=C[C@H](O)[C@@H](O)[C@@H](O)[C@H](O)CO", "RECORDED ENDPOINT": "SAM residual rate", "UNIT ABBREV": "%", "RECORDED VALUE": 99.7}

Now take the following compound into account.
Could you tell me which SAM residual rate is on file for CC(C)C[C@@H](N)C(=O)O ?
91.9
